B1: KRT13 (parent)
chain: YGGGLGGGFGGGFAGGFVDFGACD

Variants of: B1
Test: protein stability index of a GFP-peptide fusion (GPS, HEK-293T) (PSI 1-6); higher = more stable;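 further: lentivirally expressed fusions sorted by FACS into six bins by GFP to DsRed ratio, PSI derived from sequencing read proportions per bin multiplied by bin number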
Details: c terminus: a fixed tail appended
Metric name: protein stability index
Please give only the number in your answer, with no unit.

**Query** Which value of protein stability index has been reported for G15Q in the records?
**Result** 2.07

**Query** // repeat for D24N and report
**Result** 3.54

**Query** And for Y1P ?
**Result** 2.75

**Query** // repeat for A14M and report
**Result** 3.11

**Query** Also need G7C , thanks.
**Result** 3.15

**Query** Again, but for F9K
**Result** 1.64

**Query** What would you report for G7A ?
**Result** 2.41

**Query** Now give it for G4I too.
**Result** 1.93

**Query** Follow-up entry: C23A
**Result** 3.97

**Query** Same for G12W
**Result** 1.34

**Query** Okay, and G3H ?
**Result** 1.9

**Query** Moving on to the next variant: C23K
**Result** 2.01

**Query** Proceed to L5W
**Result** 3.09

**Query** // same read-out, input: F13I
**Result** 1.79

**Query** Thanks! And D19T ?
**Result** 1.95

**Query** Moving on to the next variant: A22L
**Result** 1.2

**Query** Entry F9M please
**Result** 1.45

**Query** Can you handle G4T next?
**Result** 1.87

**Query** Next: G6A
**Result** 2.4

**Query** Input A14R
**Result** 2.03

**Query** Query G11D next
**Result** 2.38

**Query** And A22S ?
**Result** 1.2

**Query** Queued: F17P
**Result** 1.81

**Query** Next record, please: Y1C
**Result** 1.52

**Query** Proceed to V18W
**Result** 2.79

**Query** One more variant: G12M
**Result** 2.92

**Query** // same read-out, input: G15T
**Result** 1.61

**Query** Field entry: F20Q
**Result** 2.36

**Query** And then F20S , what is it?
**Result** 1.82

**Query** For V18T then?
**Result** 2.17

**Query** Follow-up item: L5C
**Result** 1

**Query** Try this variant too: L5F
**Result** 1.38

**Query** Field entry: A22T
**Result** 1.9

**Query** Same for F20K
**Result** 2.11

**Query** What do you get for G4H ?
**Result** 1.6

**Query** Try this variant next: G7H
**Result** 1.92

**Query** Query G16N next
**Result** 1.71

**Query** Also Y1V ?
**Result** 3.53

**Query** Next variant up: G7E
**Result** 1.91

**Query** And for V18D ?
**Result** 1.93

**Query** Moving on to G16E
**Result** 1.69

**Query** Next variant up: F13N
**Result** 1.79

**Query** // repeat for G11F and report
**Result** 2.07

**Query** Same question, D19Q this time
**Result** 1.41

**Query** Queued: G15V
**Result** 3.52

**Query** Please do the same for G6S as well.
**Result** 1.4
